Entry source: PubChem BioAssay AID651815

- STUDY_SYSTEM: DNA dC->dU-editing enzyme APOBEC-3F (Homo sapiens)
- MEASUREMENT_PROTOCOL: qHTS for inhibitors of Vif-A3F interactions: Cherry picks counterscreen; note: nearly all actives have a fitted effect of over 65% in size
- SETTINGS: HeLa A3F-eYFP/Vif cells, eYFP fluorescence, 24 h; series mostly up to 46.1 µM
The whole screen tested about 2,100 compounds, of which about 1,100 (52%) were called active. About 29% were inconclusive and are not listed. Calls come from the whole dose curve; as a rule, active = well fitted inhibition curve with a large enough effect; inconclusive = small, poorly fitted or top-dose-only effect; inactive = no such curve, though single readings can be large or run the other way. So high a share suggests a set chosen from earlier hits. The list shows a part of the results.
Give your call using only these classes: 1 (yes) = active, 0 (no) = inactive

Q. For O=C1S/C(=C\c2ccc(N3CCOCC3)o2)C(=O)N1c1ccccc1 , what call appears in the results of this test?
A. 1 (yes)

Q. For COc1ccc(NC(=O)CN2C(=O)C3(SCC(=O)N3c3ccccc3)c3ccccc32)cc1Cl (stereo unspecified) , what call appears in the results of this test?
A. 0 (no)

Q. For O=C1S/C(=C/c2ccc(N3CCOCC3)o2)C(=O)N1Cc1ccc(F)cc1 , what call appears in the results of this test?
A. 1 (yes)

Q. For CCCN1C(=O)S/C(=C\c2ccc(N3CCOCC3)o2)C1=O , what call appears in the results of this test?
A. 1 (yes)

Q. For Cc1cccc2cc(C#N)c(SCC(=O)N3CC(=O)Nc4ccccc43)nc12 , what call appears in the results of this test?
A. 1 (yes)

Q. For NC(=O)C1CCN(c2nc3ccccc3nc2NS(=O)(=O)c2ccc(Br)cc2)CC1 , what call appears in the results of this test?
A. 1 (yes)

Q. For CC(CC(=O)Nc1ccc2c(c1)c(=O)n(C)n2-c1ccccc1)c1ccccc1 (stereo unspecified) , what call appears in the results of this test?
A. 1 (yes)

Q. For O=C(NC(=S)N1CCc2ccccc21)c1ccco1 , what call appears in the results of this test?
A. 0 (no)

Q. For COc1ccc(NC(=O)c2cc(-c3ccccc3OC)on2)cc1 , what call appears in the results of this test?
A. 1 (yes)

Q. For CCN(CC)c1ccc(/C=N/NC(=O)c2ccco2)cc1 , what call appears in the results of this test?
A. 1 (yes)

Q. For N#C/C(=C/c1cccs1)c1ccccn1 , what call appears in the results of this test?
A. 1 (yes)

====

- STUDY_SYSTEM: DNA dC->dU-editing enzyme APOBEC-3F (Homo sapiens) (UniProt Q8IUX4)
- Sequence (Q8IUX4 whole entry, looked up): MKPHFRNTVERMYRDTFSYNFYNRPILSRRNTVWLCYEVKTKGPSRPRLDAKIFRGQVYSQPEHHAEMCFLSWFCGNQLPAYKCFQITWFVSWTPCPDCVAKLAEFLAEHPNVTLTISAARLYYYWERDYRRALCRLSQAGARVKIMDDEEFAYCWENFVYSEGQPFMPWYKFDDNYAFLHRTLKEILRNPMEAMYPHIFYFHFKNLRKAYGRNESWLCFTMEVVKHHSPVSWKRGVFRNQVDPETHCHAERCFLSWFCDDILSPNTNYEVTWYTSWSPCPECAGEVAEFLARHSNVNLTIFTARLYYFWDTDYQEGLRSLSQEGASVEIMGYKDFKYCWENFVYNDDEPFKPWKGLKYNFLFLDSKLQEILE
- MEASUREMENT_PROTOCOL: qHTS for inhibitors of Vif-A3F interactions: Cherry picks counterscreen; note: nearly all actives have a fitted effect of over 65% in size
- SETTINGS: HeLa A3F-eYFP/Vif cells, eYFP fluorescence, 24 h; series mostly up to 46.1 µM
- Excerpt: The recent discovery and characterization of host restriction factors, which provide a potent defense to invading retroviruses, has provided new targets for antiviral drug development. […] In the presence of an inhibitor, it is expected that Vif will be unable to degrade A3G-eYFP and/or A3F-eYFP, resulting in an increase in yellow fluorescence. […]
The whole screen tested about 2,100 compounds, of which about 1,100 (52%) were called active. Inconclusive results (about 29%) are left out. Calls follow the shape of the dose curve; as a rule, active = well fitted inhibition curve with a large enough effect; inconclusive = small, poorly fitted or top-dose-only effect; inactive = no such curve, though single readings can be large or run the other way. The set was probably picked from earlier hits. The list shows a part of the results.
Give your call using only these classes: y (active), n (inactive)

Q. For O=C1[C@@H]2[C@@H](CN3CN(c4ccccc4)N=C(c4ccccc4)[C@@]23c2ccccc2)C(=O)N1c1ccccc1 , what call appears in the results of this test?
A. n

Q. For CC(C)CN(CC(C)C)c1ccc(/C=C/c2ccnc3ccccc23)cc1 , what call appears in the results of this test?
A. y

Q. For COc1ccc2cc(C(=O)C3CCCN(Cc4ccccn4)C3)ccc2c1 (stereo unspecified) , what call appears in the results of this test?
A. n

Q. For CCN(CC)c1ccc(/C=C/c2ccnc3ccccc23)cc1 , what call appears in the results of this test?
A. y

Q. For Cc1ccc2c(/C=C/c3c[nH]c4ccccc34)ccnc2c1C , what call appears in the results of this test?
A. y

Q. For C(=Cc1c[nH]c2ccccc12)c1nccc2ccccc12 , what call appears in the results of this test?
A. y

Q. For S=C(NCCSCc1ccc(Cl)cc1)Nc1ccccc1 , what call appears in the results of this test?
A. n

Q. For COc1ccc(-n2c(O)c(/C=N/NS(=O)(=O)c3ccc(C)c([N+](=O)[O-])c3)c3ccccc3c2=O)cc1OC , what call appears in the results of this test?
A. y

Q. For O=C1/C(=C\c2cc([N+](=O)[O-])ccc2O)SC(=S)N1Cc1ccc(Cl)cc1 , what call appears in the results of this test?
A. y

Q. For Cc1cc(C)cc(NC(=S)NC(=O)C2CC2)c1 , what call appears in the results of this test?
A. n

Q. For CCCCN(CCC(=O)O)c1ccc(/C=C/c2ccnc3ccccc23)cc1 , what call appears in the results of this test?
A. y

Q. For Cc1cc(C)cc(NC(=O)Cn2cc(C(=O)C3CCCCC3)c3ccccc32)c1 , what call appears in the results of this test?
A. y

Q. For COc1cc2c(cc1OC)CN(C(=O)/C=C/c1cccs1)CC2 , what call appears in the results of this test?
A. y

Q. For CCC(=O)Nc1ccccc1-c1nc2ccccc2n(C(C)C(=O)Nc2ccc(OC)cc2)c1=O (stereo unspecified) , what call appears in the results of this test?
A. y

Q. For O=C1NC(=Nc2ccccc2Cl)S/C1=C\c1cc([N+](=O)[O-])ccc1O , what call appears in the results of this test?
A. n

Q. For CCN(C)c1ccc(/C=C/c2ccnc3ccccc23)cc1 , what call appears in the results of this test?
A. y

Q. For CC[n+]1ccccc1/C=C/c1ccc(N(C)C)cc1 , what call appears in the results of this test?
A. y

Q. For COc1ccc(NC(=O)c2ccc3c(c2)c(C)c(C)n3Cc2ccc(F)cc2)cc1 , what call appears in the results of this test?
A. y

Q. For COc1ccc(-n2nc3c(N4CCCC(C(=O)NCCc5ccccc5C)C4)nnc(C)c3c2C)cc1 (stereo unspecified) , what call appears in the results of this test?
A. y

Q. For O=C(O)CSc1cc(NS(=O)(=O)c2cccc([N+](=O)[O-])c2)c2ccccc2c1O , what call appears in the results of this test?
A. n

Q. For Cc1ccc(N=Cc2c(O)n(-c3nccs3)c(=O)c3ccccc23)c(C)c1 , what call appears in the results of this test?
A. n

====

- STUDY_SYSTEM: DNA dC->dU-editing enzyme APOBEC-3F (Homo sapiens) (UniProt Q8IUX4)
- MEASUREMENT_PROTOCOL: qHTS for inhibitors of Vif-A3F interactions: Cherry picks counterscreen; note: nearly all actives have a fitted effect of over 65% in size
- SETTINGS: HeLa A3F-eYFP/Vif cells, eYFP fluorescence, 24 h; series mostly up to 46.1 µM
Among all 2,100 compounds or so, about 1,100 (52%) were called active. Inconclusive results (about 29%) are left out. Calls follow the shape of the dose curve; as a rule, active = well fitted inhibition curve with a large enough effect; inconclusive = small, poorly fitted or top-dose-only effect; inactive = no such curve, though single readings can be large or run the other way. So high a share suggests a set chosen from earlier hits. This is one part of the list.
Give your call using only these classes: 1 for active, 0 for inactive

Q. For O=C1CN(C(=O)c2cc(Br)c(Br)s2)c2ccccc2N1 , what call appears in the results of this test?
A. 1

Q. For COc1ccc2c(c1)c1nc3ccccc3nc1n2CC(=O)OC(C)C , what call appears in the results of this test?
A. 1

Q. For COC(=O)C1CCC(=O)N1C(c1ccc(OC)cc1)c1cc(OC)c(OC)c(OC)c1 (stereo not given) , what call appears in the results of this test?
A. 1

Q. For O=Cc1sc(Nc2ccccc2)nc1Cl , what call appears in the results of this test?
A. 1

Q. For COc1ccc2c(Cl)c(C(=O)N/N=C3\CCCC(=O)C3)sc2c1 , what call appears in the results of this test?
A. 1

Q. For CCCCOc1ccc(-c2nnn(CC(=O)NCc3ccco3)n2)cc1 , what call appears in the results of this test?
A. 1

Q. For COC(=O)CCC(=O)NC(=S)Nc1sc(C)c(C)c1C(N)=O , what call appears in the results of this test?
A. 1

Q. For CCn1nc(-c2ccccc2)c2nc3ccccc3nc21 , what call appears in the results of this test?
A. 1

Q. For O=C1CC(c2ccccc2)Cc2[nH]c(=O)c(-c3nc(-c4cccc(Cl)c4)cs3)cc21 (stereo not given) , what call appears in the results of this test?
A. 1

Q. For CCC(C)[C@H](NC(=O)N1CC(=O)Nc2ccccc21)C(=O)Nc1ccccc1C (stereo not given in full) , what call appears in the results of this test?
A. 1

Q. For CCc1ccc(NC(=O)/C(C#N)=C/c2cc3ccc(C)cc3nc2N2CCOCC2)cc1 , what call appears in the results of this test?
A. 1

Q. For Cc1ccc(S(=O)c2ccc([N+](=O)[O-])c3nonc23)cc1 (stereo not given) , what call appears in the results of this test?
A. 0

Q. For Cc1ccc(Nc2nc(Cl)c(C=O)s2)cc1Cl , what call appears in the results of this test?
A. 1

Q. For CN(C)c1ccc(/C=C/c2nccc3ccccc23)cc1 , what call appears in the results of this test?
A. 1

Q. For N#CC1=C(N)Oc2cc(N)ccc2C1C1CC=CCC1 (stereo not given) , what call appears in the results of this test?
A. 1

Q. For Cc1ccc(C2=NN(S(=O)(=O)c3ccccc3)C(c3ccccc3O)C2)cc1 (stereo not given) , what call appears in the results of this test?
A. 1

Q. For N=C1/C(=C\c2coc3ccccc3c2=O)C(=O)N=C2SC(c3ccncc3)=NN12 , what call appears in the results of this test?
A. 1

Q. For Cc1ccnc(N/C=C(\C#N)c2nc(-c3cccc(Br)c3)cs2)c1 , what call appears in the results of this test?
A. 1

Q. For COC(=O)c1c(-c2cccnc2)csc1NC(=O)c1ccc2c(c1)OCO2 , what call appears in the results of this test?
A. 0

Q. For CCOC(=O)COn1c(=O)c(-c2ccc(Br)cc2)[n+]([O-])c2ccccc21 , what call appears in the results of this test?
A. 0

Q. For CSc1nc2ccccc2cc1/C=C(\C#N)c1cccc(C)c1 , what call appears in the results of this test?
A. 1

Q. For CC1C/C(=N\NC(N)=S)c2cc(Cl)ccc2S1 (stereo not given) , what call appears in the results of this test?
A. 0

Q. For CCCOc1ccc(C(=O)Nc2cccc(NC(=O)c3ccc(Cl)cc3Cl)c2)cc1 , what call appears in the results of this test?
A. 1

Q. For COc1ccc2c(C)cc(SCC#N)nc2c1 , what call appears in the results of this test?
A. 1

Q. For Cc1ccc(F)c(S(=O)(=O)NC(=O)C2(C)CCN2C(=O)Cc2ccc(Cl)cc2Cl)c1 (stereo not given) , what call appears in the results of this test?
A. 0

Q. For CC(C)n1cnc2c(NCc3ccccc3)cc(N[C@H](C)CO)cc21 , what call appears in the results of this test?
A. 1

Q. For CCCn1nc(C(=O)N2CC(=O)Nc3ccccc32)c2ccccc2c1=O , what call appears in the results of this test?
A. 1

Q. For O=C(O)c1ccccc1N/N=C/c1c(Sc2nnnn2-c2ccccc2)nc2ccccn2c1=O , what call appears in the results of this test?
A. 0

Q. For Cc1ccc2[nH]c3c(c2c1)CN(C(=O)CN1CC(C)OC(C)C1)CC3 (stereo not given) , what call appears in the results of this test?
A. 0

Q. For CC(=O)N/N=C/c1cc(C(C)C)cc(/C=N/NC(C)=O)c1O , what call appears in the results of this test?
A. 0

Q. For COc1ccc(C(=O)/C=C/Nc2ccc([N+](=O)[O-])cc2C)c(OC)c1 , what call appears in the results of this test?
A. 1

Q. For CCOc1cc(C(=O)NN=C2CCCC2)cc(OCC)c1OCC , what call appears in the results of this test?
A. 0

Q. For CCOC(=O)Cn1c(=O)c(-c2cc(Br)ccc2N)nc2ccccc21 , what call appears in the results of this test?
A. 1

Q. For COc1ccc(Cl)cc1NC(=O)CSc1nc2c([nH]c3ccccc32)c(=O)n1-c1ccccc1 , what call appears in the results of this test?
A. 1

Q. For N#C/C(=C\c1ccc(-c2ccc(F)cc2F)o1)c1nc2ccccc2[nH]1 , what call appears in the results of this test?
A. 1

Q. For CCS(=O)(=O)Nc1cccc(C2=NN(C(=O)c3ccco3)C(c3ccco3)C2)c1 (stereo not given) , what call appears in the results of this test?
A. 1

Q. For Cc1ccc(NC(=S)Nc2ccccn2)c(C)c1 , what call appears in the results of this test?
A. 0

Q. For CCN(Cc1ccccc1)c1ccc(/C=C(\C#N)c2ccccn2)cc1 , what call appears in the results of this test?
A. 0

Q. For NNC(=S)Nc1c(F)cc(F)cc1Br , what call appears in the results of this test?
A. 0

Q. For COc1cccc(N=C2NC(=O)/C(=C/c3cc([N+](=O)[O-])ccc3O)S2)c1 , what call appears in the results of this test?
A. 0

Q. For COc1ccc2oc(=Nc3ccccc3)c(-c3nc4ccccc4[nH]3)cc2c1 , what call appears in the results of this test?
A. 1

Q. For Nc1ccccc1/C=C/c1ccnc2ccccc12 , what call appears in the results of this test?
A. 1

Q. For Cc1cc(C)cc(C(=O)N2CC(=O)Nc3ccccc32)c1 , what call appears in the results of this test?
A. 1

Q. For COc1cc(OC)cc(C(=O)N2CC(=O)Nc3ccccc32)c1 , what call appears in the results of this test?
A. 1

Q. For CCOc1ccc(Cn2c3ccc(OC)cc3c3nc4ccccc4nc32)cc1 , what call appears in the results of this test?
A. 1
